Target: HLA-A*26:01
Experiment: IEDB peptide-MHC binding, purified MHC/competitive/radioactivity; filed as Kd, often an IC50 or EC50 that approximates it; bounds were set here for any values at or beyond the usual limits of such assays
Conditions: source organism: Mammarenavirus whitewaterense
endpoint_label: Kd (nM)
Form entry: value (nM) — number only.

Any idea what Kd was measured for `DLGLLYTAKY` ?
1000

====

Biological target: HLA-B*08:01
Assay: IEDB peptide-MHC binding, purified MHC/competitive/fluorescence; filed as Kd, often an IC50 or EC50 that approximates it; bounds were set here for any values at or beyond the usual limits of such assays
Conditions: source organism: Influenza A virus (A/Wellington/8/2004(H3N2))
endpoint_label: pKd
Remember the convention: pKd equals -log10 of concentration in molar.

Quick one: pKd for `QARRMVQAM` ?
7.06
